Reference source for all entries: patent US10597388B2

Test system: deadnettle (henbit deadnettle, Lamium amplexicaule)
Assay: Test D controlled growth environment herbicide test, pre- and postemergence
Format: in vivo
Settings: Preemergence, 250 g ai/ha; scale 0 to 100 (0 no effect, 100 complete control)
endpoint: Plant response rating, Deadnettle
Response field accepts a number only; no unit should be typed.

Data request: Give the reported Plant response rating, Deadnettle for `CCC(=O)Oc1c(C)nn(C)c(=O)c1-c1c(C)sc2ccc(C)cc12` (system: deadnettle (henbit deadnettle, Lamium amplexicaule)).
Data returned: 15

Data request: Give the reported Plant response rating, Deadnettle for `COc1nn(C)c(=O)c(-c2c(C)ccc3ccccc23)c1OC(=O)OC(C)C` (system: deadnettle (henbit deadnettle, Lamium amplexicaule)).
Data returned: 85

Data request: Give the reported Plant response rating, Deadnettle for `Cc1ccc2ccc(C)c(-c3c(O)c(C)nn(C)c3=O)c2c1` (system: deadnettle (henbit deadnettle, Lamium amplexicaule)).
Data returned: 100

Data request: Give the reported Plant response rating, Deadnettle for `CC(=O)Oc1c(Br)nn(C)c(=O)c1-c1c(C)ccc2ccccc12` (system: deadnettle (henbit deadnettle, Lamium amplexicaule)).
Data returned: 95

Data request: Give the reported Plant response rating, Deadnettle for `CCC(=O)Oc1c(C)nn(C)c(=O)c1-c1c(C)sc2ccc(Cl)cc12` (system: deadnettle (henbit deadnettle, Lamium amplexicaule)).
Data returned: 95

Data request: Give the reported Plant response rating, Deadnettle for `CC(=O)Oc1c(C)nn(C)c(=O)c1-c1ccc(F)c2ccccc12` (system: deadnettle (henbit deadnettle, Lamium amplexicaule)).
Data returned: 98

Data request: Give the reported Plant response rating, Deadnettle for `CC(=O)Oc1c(C)nn(C)c(=O)c1-c1c(C)sc2c(C)cc(C)cc12` (system: deadnettle (henbit deadnettle, Lamium amplexicaule)).
Data returned: 80

Data request: Give the reported Plant response rating, Deadnettle for `CCOC(=O)Oc1c(C)nn(C)c(=O)c1-c1c(C)sc2c(C)cc(C)cc12` (system: deadnettle (henbit deadnettle, Lamium amplexicaule)).
Data returned: 100
